system under test: Peroxisome proliferator-activated receptor delta (Homo sapiens, UniProt Q03181)
Sequence (Q03181 whole entry): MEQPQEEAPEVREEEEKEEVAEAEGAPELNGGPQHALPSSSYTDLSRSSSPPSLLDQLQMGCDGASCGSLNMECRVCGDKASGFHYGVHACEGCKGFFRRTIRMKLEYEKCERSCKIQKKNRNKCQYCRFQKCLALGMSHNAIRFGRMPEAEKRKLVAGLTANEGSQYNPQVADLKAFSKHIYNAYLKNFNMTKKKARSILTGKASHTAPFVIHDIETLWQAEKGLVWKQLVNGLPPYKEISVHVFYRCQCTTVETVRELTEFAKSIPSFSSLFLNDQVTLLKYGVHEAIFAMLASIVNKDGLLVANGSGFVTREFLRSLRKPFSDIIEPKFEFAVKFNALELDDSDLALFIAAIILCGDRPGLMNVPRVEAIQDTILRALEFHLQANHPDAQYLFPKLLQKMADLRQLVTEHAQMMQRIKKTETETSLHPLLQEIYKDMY
method: Agonist activity at human PPAR delta by FRET assay
Assay type: functional
reported property: pEC50
Scale for pEC50: -log10 of concentration given in mol/L; no unit attached.

smiles representation	system under test	pEC50
CCCc1c(OCCCOc2ccc3c(c2)CC[C@H]3CC(=O)O)ccc2c1ccn2C	Peroxisome proliferator-activated receptor delta (Homo sapiens, UniProt Q03181)	7.54
COc1ncc(-c2ccc(OCCCOc3ccc4c(c3)CC[C@H]4CC(=O)O)cc2)c(OC)n1	Peroxisome proliferator-activated receptor delta (Homo sapiens, UniProt Q03181)	8.25
Cc1cc(-c2nc(C(F)(F)F)ns2)ccc1OCCCOc1ccc2c(c1)CC[C@H]2CC(=O)O	Peroxisome proliferator-activated receptor delta (Homo sapiens, UniProt Q03181)	8.47
COc1cc(C)ccc1OCCCOc1ccc2c(c1)CC[C@H]2CC(=O)O	Peroxisome proliferator-activated receptor delta (Homo sapiens, UniProt Q03181)	8.12
CCCc1ccccc1OCCCOc1ccc2c(c1)CC[C@H]2CC(=O)O	Peroxisome proliferator-activated receptor delta (Homo sapiens, UniProt Q03181)	8.62

Just so you know, measured pEC50 for Cc1noc2c(C)c(OCCCOc3ccc4c(c3)CC[C@H]4CC(=O)O)ccc12 came out at 8.09

Just so you know, measured pEC50 for CCOc1csc(-c2ccc(OCCCOc3ccc4c(c3)CC[C@H]4CC(=O)O)cc2)n1 came out at 8.92

Taken from ChEMBL document CHEMBL1142242.
